Listing of recorded bioavailability by entry.
Assay: Oral bioavailability in Beagle dog at 0.5 mg/kg by LC-MS/MS analysis
Assay type: ADME, organism-based, Canis lupus familiaris
Conditions: in vivo

COMPOUND: CC(C)(O)Cn1ncc(Nc2ncc3cc(Cl)c(C4CCN(C5COC5)CC4)cc3n2)c1Cl
bioavailability / %: 85
--
COMPOUND: Cc1c(Nc2ncc3cc(Cl)c(C4CCN([C@@H]5COC[C@@H]5O)CC4)cc3n2)cnn1[C@@H]1CC1(F)F
bioavailability / %: 65
--
COMPOUND: O[C@H]1COC[C@H]1N1CC[C@@H](c2cc3nc(Nc4cnn([C@@H]5CC5(F)F)c4Cl)ncc3cc2Cl)[C@H](F)C1
bioavailability / %: 79

###

Experiment: AUC in rat at 10 to 400 mg/kg, po qd for 4 days by LC/MS/MS analysis
Format: ADME, organism-based
Set-up: time 4 day
Details: in vivo, 96 h, dose 10-400 mg/kg
READOUT_TYPE: AUC (µM·h)

COMPOUND: O[C@H]1COC[C@H]1N1CC[C@@H](c2cc3nc(Nc4cnn([C@@H]5CC5(F)F)c4Cl)ncc3cc2Cl)[C@H](F)C1
UNIT_NAME: µM·h
EXPERIMENTAL_RESULT: 99

###

Experiment: Thermodynamic solubility of the compound in FaSSIF measured after 24 hrs by reverse phase UPLC analysis
Assay type: physicochemical
Settings: read-out: Therm_solubility
Catalogue of molecules with associated solubility thermodynamic at 24 h

COMPOUND: Cc1c(Nc2ncc3cc(Cl)c(C4CCN([C@@H]5COC[C@@H]5O)CC4)cc3n2)cnn1[C@@H]1CC1(F)F
solubility thermodynamic at 24 h / µg/mL: 30

COMPOUND: O[C@H]1COC[C@H]1N1CC[C@@H](c2cc3nc(Nc4cnn([C@@H]5CC5(F)F)c4Cl)ncc3cc2Cl)[C@H](F)C1
solubility thermodynamic at 24 h / µg/mL: 4

###

Assay: Intrinsic clearance in rat hepatocytes at 0.3 uM incubated for 90 mins by LC/MS/MS analysis
Type: ADME, cell-based, Hepatocyte
Conditions: read-out: CLH

COMPOUND: Cc1c(Nc2ncc3cccc(C4CC4)c3n2)cnn1C1CCOCC1
CLint scaled at 0.3 µM [mL/min/kg]: 898
//
COMPOUND: FC1CN(C2COCC2F)CCC1c1cc2nc(Nc3cnn(C4CC4(F)F)c3Cl)ncc2cc1Cl (centres undefined)
CLint scaled at 0.3 µM [mL/min/kg]: 956
//
COMPOUND: FC1CN(C2COC2)CCC1c1cc2nc(Nc3cnn(C4CC4)c3Cl)ncc2cc1Cl (centres undefined)
CLint scaled at 0.3 µM [mL/min/kg]: 329
//
COMPOUND: Clc1cc2cnc(Nc3cnn(C4CC4)c3Cl)nc2cc1C1CCN(C2COC2)CC1
CLint scaled at 0.3 µM [mL/min/kg]: 464
//
COMPOUND: N#CC1(c2ccc3cnc(Nc4cnn(C5CCOCC5)c4Cl)nc3c2)CC12CC2 (centres undefined)
CLint scaled at 0.3 µM [mL/min/kg]: 1960
//
COMPOUND: CC(C)(O)Cn1ncc(Nc2ncc3cc(Cl)c(C4CCN(C5COC5)CC4)cc3n2)c1Cl
CLint scaled at 0.3 µM [mL/min/kg]: 311
//
COMPOUND: Clc1cc2cnc(Nc3cnn(C4CC4)c3Cl)nc2cc1N1CCN(C2COC2)CC1
CLint scaled at 0.3 µM [mL/min/kg]: 168
//
COMPOUND: Cc1c(Nc2ncc3cc(Cl)c(C4CCN(C5COC5)CC4)cc3n2)cnn1C1CC1
CLint scaled at 0.3 µM [mL/min/kg]: 457
//
COMPOUND: Cc1c(Nc2ncc3cc(Cl)c(C4CCN([C@@H]5COC[C@@H]5O)CC4)cc3n2)cnn1[C@@H]1CC1(F)F
CLint scaled at 0.3 µM [mL/min/kg]: 464
